The measurements presented in this section are drawn from ChEMBL document CHEMBL3885861.

- Species: Rattus norvegicus
- protocol.summary: Open TG-GATES - Regimen: Daily Repeat
- Type: toxicity, organism-based, Sprague-Dawley
- Parameters: regimen Daily Repeat, gender Male, age 6 weeks
- condition.details: in vivo, po, 0 mg/kg, 72 h, tissue Blood, route gavage, dose level Control, time 3 day
Listed below: APTT values for each entry.

{"compound": "CN(C)CCC(c1ccc(Cl)cc1)c1ccccn1 (stereo unspecified) [CHLORPHENIRAMINE]", "units.label": "s", "APTT": 23.2}
{"compound": "CCOc1ccc(NC(C)=O)cc1 [PHENACETIN]", "units.label": "s", "APTT": 16.7}
{"compound": "CNC(=C[N+](=O)[O-])NCCSCc1ccc(CN(C)C)o1 [RANITIDINE]", "units.label": "s", "APTT": 18.8}
{"compound": "CN1C(=O)CCS(=O)(=O)C1c1ccc(Cl)cc1 (stereo unspecified) [CHLORMEZANONE]", "units.label": "s", "APTT": 15.7}
{"compound": "CN/C(=N/CCSCc1nc[nH]c1C)NC#N [CIMETIDINE]", "units.label": "s", "APTT": 20.3}
{"compound": "NC1=NC(=O)C(c2ccccc2)O1 (stereo unspecified) [PEMOLINE]", "units.label": "s", "APTT": 16.2}
